# systemName: T1, human CD3 epsilon (Acro Cat #CDE-H5223) (human, UniProt P07766 23-126)
# T1 construct: Bought recombinant protein; also called rhCD3E
# T1 sequence (P07766 23-126 limits assumed): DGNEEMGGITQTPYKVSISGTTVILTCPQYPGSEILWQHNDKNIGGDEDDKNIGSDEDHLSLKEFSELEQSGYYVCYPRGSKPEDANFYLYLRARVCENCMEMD
# assayInfo: SPR (Biacore), antibody captured, human CD3 epsilon analyte

| binder | koff |
| --- | --- |
| SRP 2037-B10 Y61D/R97D (antibody, human IgG1, lambda, V domains shown, human IgG1, lambda) VH: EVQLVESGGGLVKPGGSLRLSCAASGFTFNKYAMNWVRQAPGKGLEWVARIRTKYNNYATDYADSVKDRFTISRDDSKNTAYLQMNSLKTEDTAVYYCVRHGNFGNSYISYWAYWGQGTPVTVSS VL: QTVVTQEPSLTVSPGGTVTLTCGSSTGAVTSGYYPNWLQQKPGQAPRGLIGGTKFLAPGTPARFSGSLLGGKAALTLSGVQPEDEAEYYCALWYSNDWVFGGGTQLTVTG | 0.00029 s⁻¹ |
| SRP 2037-B10 F29D/LC6 (antibody, human IgG1, kappa, V domains shown, human IgG1, kappa) VH: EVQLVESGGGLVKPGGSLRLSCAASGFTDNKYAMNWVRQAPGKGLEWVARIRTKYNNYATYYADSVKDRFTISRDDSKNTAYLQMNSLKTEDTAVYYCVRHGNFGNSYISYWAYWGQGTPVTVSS VL: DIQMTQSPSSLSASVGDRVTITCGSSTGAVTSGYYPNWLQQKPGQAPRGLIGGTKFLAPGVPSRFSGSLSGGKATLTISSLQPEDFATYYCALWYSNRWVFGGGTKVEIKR | 0.000749 s⁻¹ |
| SRP 2037-B10 F104D/R97D (antibody, human IgG1, lambda, V domains shown, human IgG1, lambda) VH: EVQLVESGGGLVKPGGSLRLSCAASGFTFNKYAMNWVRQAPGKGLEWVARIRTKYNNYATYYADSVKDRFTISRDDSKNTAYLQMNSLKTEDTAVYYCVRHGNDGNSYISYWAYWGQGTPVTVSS VL: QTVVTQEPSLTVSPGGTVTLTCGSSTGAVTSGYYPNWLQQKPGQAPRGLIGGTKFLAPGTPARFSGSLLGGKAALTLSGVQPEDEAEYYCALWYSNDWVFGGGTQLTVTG | 0.000115 s⁻¹ |
| SRP 2037-B10 F104D/LC6 (antibody, human IgG1, kappa, V domains shown, human IgG1, kappa) VH: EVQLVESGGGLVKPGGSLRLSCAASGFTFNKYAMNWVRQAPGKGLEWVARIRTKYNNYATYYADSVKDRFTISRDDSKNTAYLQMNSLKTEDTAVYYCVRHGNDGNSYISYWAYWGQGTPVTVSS VL: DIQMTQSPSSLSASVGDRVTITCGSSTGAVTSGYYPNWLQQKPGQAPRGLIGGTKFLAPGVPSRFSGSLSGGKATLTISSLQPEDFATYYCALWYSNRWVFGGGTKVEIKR | 0.000374 s⁻¹ |
| 2037-B10_Hc-Y61D (antibody, human IgG1, lambda, V domains shown, human IgG1, lambda; also called SRP 2037 Y61D; 2037-B10_VH-Y61D) VH: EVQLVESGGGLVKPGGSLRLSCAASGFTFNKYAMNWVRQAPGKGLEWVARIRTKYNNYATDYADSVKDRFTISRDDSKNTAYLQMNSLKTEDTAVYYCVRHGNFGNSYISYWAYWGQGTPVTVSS VL: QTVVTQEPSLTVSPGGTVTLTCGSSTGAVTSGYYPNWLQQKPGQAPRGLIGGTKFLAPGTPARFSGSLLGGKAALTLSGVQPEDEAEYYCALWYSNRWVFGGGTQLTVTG | 0.000379 s⁻¹ |
| SRP 2037-B10 F29D/R97D (antibody, human IgG1, lambda, V domains shown, human IgG1, lambda) VH: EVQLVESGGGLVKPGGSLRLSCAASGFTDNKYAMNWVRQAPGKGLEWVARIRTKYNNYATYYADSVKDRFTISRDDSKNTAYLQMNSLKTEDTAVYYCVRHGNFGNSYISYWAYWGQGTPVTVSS VL: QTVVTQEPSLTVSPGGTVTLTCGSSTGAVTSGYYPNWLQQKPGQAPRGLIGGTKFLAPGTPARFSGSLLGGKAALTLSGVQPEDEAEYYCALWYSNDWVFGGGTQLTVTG | 0.000761 s⁻¹ |

Source: patent US20240124585A1
